The compounds listed here are annotated with their pKi.
target: human recombinant dopamine D3 receptor (Homo sapiens (Human), UniProt P35462); assay: Test of binding inhibition for dopamine D3 receptor ([3H]-Methylspiperone SPA); conditions: Jump-In HEK cell membranes, 2 nM [3H]-Methylspiperone, 120 min at 25° C.; read-out: hD3_Ki
Sequence (P35462 whole entry): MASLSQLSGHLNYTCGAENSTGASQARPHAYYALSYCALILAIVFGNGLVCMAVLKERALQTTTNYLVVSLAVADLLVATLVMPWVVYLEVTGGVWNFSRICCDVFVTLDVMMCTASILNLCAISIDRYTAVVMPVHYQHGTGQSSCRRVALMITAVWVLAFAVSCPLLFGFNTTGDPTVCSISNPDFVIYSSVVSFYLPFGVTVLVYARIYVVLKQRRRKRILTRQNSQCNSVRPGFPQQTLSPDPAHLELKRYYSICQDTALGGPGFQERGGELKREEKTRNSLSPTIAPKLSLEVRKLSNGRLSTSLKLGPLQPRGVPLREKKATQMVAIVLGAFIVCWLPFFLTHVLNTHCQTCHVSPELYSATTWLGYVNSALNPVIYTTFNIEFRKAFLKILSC
pKi: −log10 of the molar value.

SMILES_STRUCTURE | pKi
Cc1ncc(/C=C/C(=O)N[C@H]2CC[C@H](CCN3CCc4nc(OCC(C)(F)F)sc4CC3)CC2)cn1 | 10.01
COc1cc(CC(=O)N[C@H]2CC[C@](F)(CCN3CCc4ccc(OCC(F)F)nc4CC3)CC2)on1 | 10.36
Cc1ncc(CC(=O)N[C@H]2CC[C@H](CCN3CCc4nc(OCC(C)(F)F)sc4CC3)OC2)s1 | 9.52
Cc1ncc(OCC(=O)N[C@H]2CC[C@H](CCN3CCc4ccc(OCC(F)F)nc4CC3)CC2)cn1 | 9.96

====

biological target: human recombinant dopamine D3 receptor (Homo sapiens (Human), UniProt P35462); test: Test of binding inhibition for dopamine D3 receptor ([3H]-Methylspiperone SPA); settings: Jump-In HEK cell membranes, 2 nM [3H]-Methylspiperone, 120 min at 25° C.; read-out: hD3_Ki
pKi: −log10 of the molar value.

SMILES_STRUCTURE | pKi
Cc1ncccc1C(=O)N[C@H]1CC[C@H](CCN2CCc3ccc(CCC(F)(F)F)nc3CC2)CC1 | 9.37
Cn1ncc2ccc(C(=O)N[C@H]3CC[C@H](CCN4CCc5nc(OCC(C)(F)F)sc5CC4)OC3)cc21 | 9.80
Cc1cc(CC(=O)N[C@H]2CC[C@H](CCN3CCc4nc(OCC(C)(F)F)sc4CC3)CC2)on1 | 10.08
Cc1cc(CC(=O)N[C@H]2CC[C@H](CCN3CCc4ccc(OCC(F)F)nc4CC3)CC2)no1 | 9.52
Cn1ncc(CC(=O)N[C@H]2CC[C@](F)(CCN3CCc4nc(OCC(F)F)sc4CC3)CC2)n1 | 9.31
Cn1c(C(=O)N[C@H]2CC[C@H](CCN3CCc4nc(OCC(F)(F)F)sc4CC3)CC2)ccc(F)c1=O | 9.62
Cc1nnc(CC(=O)N[C@H]2CC[C@H](CCN3CCc4ccc(CCC(F)(F)F)nc4CC3)CC2)o1 | 9.74

====

molecular target: hERG channel (IKr) (Homo sapiens (Human), UniProt Q12809); experiment: hERG test (whole cell patch clamp, IKr); assay type: cell-based; settings: human, CHO cells expressing hERG channel, pH 7.4, 3 μM, tail peak current
Sequence (Q12809 whole entry): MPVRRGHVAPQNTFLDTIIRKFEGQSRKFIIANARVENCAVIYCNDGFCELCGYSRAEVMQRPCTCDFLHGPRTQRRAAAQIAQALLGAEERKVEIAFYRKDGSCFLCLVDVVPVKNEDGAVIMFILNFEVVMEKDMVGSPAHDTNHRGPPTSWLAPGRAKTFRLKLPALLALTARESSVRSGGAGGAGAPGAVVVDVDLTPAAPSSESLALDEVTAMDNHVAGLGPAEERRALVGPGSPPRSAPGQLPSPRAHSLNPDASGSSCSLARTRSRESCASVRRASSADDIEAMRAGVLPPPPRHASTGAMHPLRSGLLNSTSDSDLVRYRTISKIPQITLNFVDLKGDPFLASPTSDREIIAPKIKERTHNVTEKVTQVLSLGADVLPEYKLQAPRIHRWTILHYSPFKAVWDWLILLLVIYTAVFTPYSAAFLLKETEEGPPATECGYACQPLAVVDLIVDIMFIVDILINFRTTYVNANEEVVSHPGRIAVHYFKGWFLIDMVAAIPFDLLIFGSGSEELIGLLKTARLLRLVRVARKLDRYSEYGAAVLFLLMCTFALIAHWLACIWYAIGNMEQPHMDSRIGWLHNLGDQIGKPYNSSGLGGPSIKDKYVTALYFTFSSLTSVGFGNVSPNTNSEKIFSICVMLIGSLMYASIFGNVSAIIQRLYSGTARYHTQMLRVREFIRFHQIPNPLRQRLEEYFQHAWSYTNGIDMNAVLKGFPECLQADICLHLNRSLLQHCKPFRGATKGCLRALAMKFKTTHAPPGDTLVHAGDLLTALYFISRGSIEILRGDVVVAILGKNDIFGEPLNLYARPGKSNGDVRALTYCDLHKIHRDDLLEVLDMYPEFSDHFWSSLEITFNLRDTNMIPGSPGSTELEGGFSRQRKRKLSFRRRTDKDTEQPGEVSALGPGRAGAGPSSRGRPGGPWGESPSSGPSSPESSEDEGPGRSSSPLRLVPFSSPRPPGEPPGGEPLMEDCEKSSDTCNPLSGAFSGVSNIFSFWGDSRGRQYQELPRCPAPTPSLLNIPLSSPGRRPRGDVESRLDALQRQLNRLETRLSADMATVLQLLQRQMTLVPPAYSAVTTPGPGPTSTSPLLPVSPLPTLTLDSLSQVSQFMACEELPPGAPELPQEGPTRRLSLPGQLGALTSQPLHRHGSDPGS
Each entry below lists one item and its recorded inhibition at 3 µM value.

COMPOUND | inhibition at 3 µM [%]
COC(CN1CCc2sc(OCC(F)(F)F)nc2C1)[C@H]1CC[C@H](NC(=O)c2cccc3nn(C)cc23)CC1 (stereo partly shown) | 16.8
Cc1ncccc1C(=O)N[C@H]1CC[C@](F)(CCN2CCc3nc(OCC(C)(F)F)sc3CC2)CC1 | 10.8
Cc1nc(CC(=O)N[C@H]2CC[C@H](CCN3CCc4nc(OCC(F)(F)F)sc4CC3)CC2)n(C)n1 | 3.75
CC[C@@H](C)Oc1ccc2c(n1)CCN(CC[C@]1(F)CC[C@@H](NC(=O)Cc3nnc(C)o3)CC1)CC2 | 1.06
Cn1cc2c(C(=O)N[C@H]3CC4(C3)C[C@](F)(CCN3CCc5nc(OCC(F)(F)F)sc5CC3)C4)cccc2n1 (single isomer, unassigned) | 36.8
Cn1c(C(=O)N[C@H]2CC[C@](F)(CCN3CCc4nc(OCCC(F)(F)F)sc4CC3)CC2)cccc1=O | 6.89
Cn1cc2c(C(=O)N[C@H]3CC[C@H](CCN4CCc5sc(OCC(C)(F)F)nc5C4)CC3)c(F)ccc2n1 | 26
